Reported self-splicing fitness (ln) values for a set of sequences
- assay_explanation: self-splicing fitness, log relative to wild type (ln ratio); higher = more splicing; Tetrahymena group I intron in knt gene, E. coli kanamycin selection, DiMSum; sequences stand for … in CUCUCU…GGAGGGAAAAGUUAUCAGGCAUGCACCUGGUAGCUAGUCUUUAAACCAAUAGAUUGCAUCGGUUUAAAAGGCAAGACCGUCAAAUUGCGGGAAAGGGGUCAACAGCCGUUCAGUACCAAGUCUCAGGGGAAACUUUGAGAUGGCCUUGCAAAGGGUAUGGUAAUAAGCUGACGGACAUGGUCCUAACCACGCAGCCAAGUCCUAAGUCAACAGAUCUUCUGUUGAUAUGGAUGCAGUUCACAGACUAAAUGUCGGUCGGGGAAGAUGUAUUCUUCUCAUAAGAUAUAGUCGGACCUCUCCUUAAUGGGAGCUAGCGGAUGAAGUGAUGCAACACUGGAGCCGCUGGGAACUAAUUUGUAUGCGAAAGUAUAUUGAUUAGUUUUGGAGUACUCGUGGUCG;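 note: selection with 25 µg/mL kanamycin versus none on LB agar overnight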
- measurement_parameters: 30 °C

Consider the reported self-splicing fitness (ln) for these sequences:
GAUAAGCAAUAUUACGUGCG -0.71
CUAGAGCAAUAUUACGAGGG -2.12
AUCAAGCAAUAUUACGUACA -1.21

Exercise: Fill in the blank: the reported self-splicing fitness (ln) of AGUAAGCAAUAUUACGUUUU is ____.
Solution: -3.28

Exercise: self-splicing fitness (ln) for CCGCAGCAAUAUUACGUAUC ?
Solution: -4.05

Exercise: Need self-splicing fitness (ln), item GCCGAGCAAUAUUACGUAAC
Solution: -2.89

Exercise: Requested field: self-splicing fitness (ln). Item: GACCAGCAAUAUUACGCAGU
Solution: -1.56

Exercise: // returns reported self-splicing fitness (ln) for input GGUGAGCAAUAUUACGGGUC
Solution: -1.98

Exercise: So what's the measured self-splicing fitness (ln) for this one? UGUCAGCAAUAUUACGGCGA
Solution: -0.34

Exercise: Suppose we examine the sequence GAGAAGCAAUAUUACGCGCA ; what self-splicing fitness (ln) value has been reported?
Solution: -0.304

Exercise: Would you mind telling me what self-splicing fitness (ln) value was observed for UCGGAGCAAUAUUACGGGGG ?
Solution: -2.73

Exercise: Suppose we examine the sequence UAUAAGCAAUAUUACGUCCU ; what self-splicing fitness (ln) value has been reported?
Solution: -1.28

Exercise: Look up self-splicing fitness (ln) for this sequence: GACCAGCAAUAUUACGCCCC
Solution: -1.35

* * *

- assay_explanation: self-splicing fitness, log relative to wild type (ln ratio); higher = more splicing; Tetrahymena group I intron in knt gene, E. coli kanamycin selection, DiMSum; sequences stand for … in CUCUCU…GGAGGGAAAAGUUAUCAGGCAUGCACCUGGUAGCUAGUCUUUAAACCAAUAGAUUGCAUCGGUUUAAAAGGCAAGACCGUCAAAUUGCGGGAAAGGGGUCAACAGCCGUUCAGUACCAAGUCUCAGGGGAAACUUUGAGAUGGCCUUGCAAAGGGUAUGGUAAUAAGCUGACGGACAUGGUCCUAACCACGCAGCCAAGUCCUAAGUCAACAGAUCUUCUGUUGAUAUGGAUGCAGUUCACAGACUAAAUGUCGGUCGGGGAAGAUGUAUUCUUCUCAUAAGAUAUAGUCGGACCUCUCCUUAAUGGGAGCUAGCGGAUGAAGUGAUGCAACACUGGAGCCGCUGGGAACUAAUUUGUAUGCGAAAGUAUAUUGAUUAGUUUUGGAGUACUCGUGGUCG
- measurement_parameters: 30 °C
assay_endpoint: self-splicing fitness (ln)
Returns: the value as a bare number; no unit string appended.

Take a look at these entries with their results.
GCCCAGCAAUAUUACGAGAC -2.15
AAAUAGCAAUAUUACGACGG -0.995
GUUGAGCAAUAUUACGGUAG -4.24
UUAGAGCAAUAUUACGGUUA -0.618
CCGAAGCAAUAUUACGUCAU -4.87
GAGCAGCAAUAUUACGUGGA -3.09
GCUCAGCAAUAUUACGGAAG -2.23
ACGUAGCAAUAUUACGAUGC -3.24

Exercise: Entry UGAUAGCAAUAUUACGUCCG has what self-splicing fitness (ln)?
Solution: -0.219

Exercise: Record request: self-splicing fitness (ln) value, item GUGAAGCAAUAUUACGUUGG
Solution: -2.81

Exercise: Sample GCUCAGCAAUAUUACGAGCU — what was its self-splicing fitness (ln)?
Solution: -1.77

Exercise: So what does the record say about self-splicing fitness (ln) for ACGCAGCAAUAUUACGGACC ?
Solution: -1.95

Exercise: Any idea what its self-splicing fitness (ln) is? The sequence is AGUCAGCAAUAUUACGAUGG
Solution: -1.55

Exercise: Could you share which self-splicing fitness (ln) value was measured for ACACAGCAAUAUUACGGACU ?
Solution: -0.884

Exercise: Entry GGGCAGCAAUAUUACGAAAA has what self-splicing fitness (ln)?
Solution: -2.12

* * *

- assay_explanation: self-splicing fitness, log relative to wild type (ln ratio); higher = more splicing; Tetrahymena group I intron in knt gene, E. coli kanamycin selection, DiMSum; sequences stand for … in CUCUCU…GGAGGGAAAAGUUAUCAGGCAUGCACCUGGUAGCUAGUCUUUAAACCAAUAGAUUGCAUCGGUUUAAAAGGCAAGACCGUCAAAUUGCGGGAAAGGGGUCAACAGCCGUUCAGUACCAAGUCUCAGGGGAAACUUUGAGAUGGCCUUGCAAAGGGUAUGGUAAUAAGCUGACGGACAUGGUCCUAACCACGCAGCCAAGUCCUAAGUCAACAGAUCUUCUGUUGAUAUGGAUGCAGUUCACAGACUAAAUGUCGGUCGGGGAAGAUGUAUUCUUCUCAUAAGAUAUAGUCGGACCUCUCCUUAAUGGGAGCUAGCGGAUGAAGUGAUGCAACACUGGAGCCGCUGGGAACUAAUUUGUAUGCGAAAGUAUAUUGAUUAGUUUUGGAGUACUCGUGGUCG
- measurement_parameters: 37 °C
Respond with YES for self-splicing fitness (ln) values of -2 and above, NO for values below.

Recorded results for 10 sequences are shown here.
UGCCAGCAAUAUUACGAAAA YES
CUAGAGCAAUAUUACGCCAA NO
AUGGAGCAAUAUUACGAACU YES
GUUAAGCAAUAUUACGUUCA YES
ACUCAGCAAUAUUACGUAUC YES
GCAUAGCAAUAUUACGCCAU NO
GGCAAGCAAUAUUACGAGAU YES
UUUGAGCAAUAUUACGCGUC NO
CUUCAGCAAUAUUACGGCAG YES
UCAAAGCAAUAUUACGUUCA YES

Exercise: Item CGCGAGCAAUAUUACGACUU with self-splicing fitness (ln) of -2 or above?
Solution: YES

Exercise: # bool: self-splicing fitness (ln) of AUCGAGCAAUAUUACGGCCC >= -2
Solution: YES

* * *

- assay_explanation: self-splicing fitness, log relative to wild type (ln ratio); higher = more splicing; Tetrahymena group I intron in knt gene, E. coli kanamycin selection, DiMSum; sequences stand for … in CUCUCU…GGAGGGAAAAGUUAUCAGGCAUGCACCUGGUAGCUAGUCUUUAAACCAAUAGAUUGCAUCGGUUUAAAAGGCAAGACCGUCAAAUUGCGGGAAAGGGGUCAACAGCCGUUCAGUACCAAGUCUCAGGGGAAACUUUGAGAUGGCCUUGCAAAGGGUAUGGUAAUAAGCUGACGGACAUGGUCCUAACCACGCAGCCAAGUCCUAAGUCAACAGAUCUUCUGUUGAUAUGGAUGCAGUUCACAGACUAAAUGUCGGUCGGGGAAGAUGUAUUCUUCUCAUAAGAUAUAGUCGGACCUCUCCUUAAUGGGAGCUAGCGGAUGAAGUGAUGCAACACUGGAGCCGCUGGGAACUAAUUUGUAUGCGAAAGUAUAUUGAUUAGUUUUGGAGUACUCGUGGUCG
- measurement_parameters: 37 °C
Each entry gets -1 if its self-splicing fitness (ln) stays under -2, and 1 if its self-splicing fitness (ln) is -2 or above.

Please review the following examples before continuing.
UCUAAGCAAUAUUACGUACU 1
GCAUAGCAAUAUUACGGUUA 1
GCCCAGCAAUAUUACGCAGU 1
CUUCAGCAAUAUUACGGAAG -1
CUACAGCAAUAUUACGUGAA -1

Exercise: // inclusive: self-splicing fitness (ln) at least -2? input: ACCAAGCAAUAUUACGGCAU
Solution: 1

Exercise: hey, is self-splicing fitness (ln) for this one >= -2? UCAGAGCAAUAUUACGGAGA
Solution: 1

* * *

- assay_explanation: self-splicing fitness, log relative to wild type (ln ratio); higher = more splicing; Tetrahymena group I intron in knt gene, E. coli kanamycin selection, DiMSum; sequences stand for … in CUCUCU…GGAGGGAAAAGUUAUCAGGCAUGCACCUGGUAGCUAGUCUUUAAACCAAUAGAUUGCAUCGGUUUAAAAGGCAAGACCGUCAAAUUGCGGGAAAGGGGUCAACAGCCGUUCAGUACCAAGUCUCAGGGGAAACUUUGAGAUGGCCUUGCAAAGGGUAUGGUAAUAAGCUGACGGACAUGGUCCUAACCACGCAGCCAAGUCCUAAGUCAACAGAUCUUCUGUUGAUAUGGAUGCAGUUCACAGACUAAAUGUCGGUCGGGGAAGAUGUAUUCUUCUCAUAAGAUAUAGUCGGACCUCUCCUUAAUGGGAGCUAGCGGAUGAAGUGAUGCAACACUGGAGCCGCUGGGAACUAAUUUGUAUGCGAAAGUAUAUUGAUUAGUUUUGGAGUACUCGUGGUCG
- measurement_parameters: 30 °C
Measured self-splicing fitness (ln), listed per entry.
Note: the reply should be a number with no unit written.

Guide cases for self-splicing fitness (ln), answers given:
GUCAAGCAAUAUUACGCAGU -3.31
CGACAGCAAUAUUACGUUAU -3.7

Exercise: Which self-splicing fitness (ln) value is on record for UUCCAGCAAUAUUACGGACG ?
Solution: -0.4

Exercise: Data request, read-out self-splicing fitness (ln), for CCACAGCAAUAUUACGUGUA
Solution: -3.23

Exercise: Fill blank: measured self-splicing fitness (ln) of the sequence AUUCAGCAAUAUUACGGGCC is ____.
Solution: -2.57

Exercise: Fill blank: measured self-splicing fitness (ln) of the sequence UCUGAGCAAUAUUACGCGCU is ____.
Solution: -2.53

Exercise: Report self-splicing fitness (ln) for CCGGAGCAAUAUUACGGACC please.
Solution: -2.12
